TESTED_SYSTEM: T1, human PCSK9, V5- and His-tagged (hPCSK9v5His) (human, UniProt Q8NBP7 31-692)
T1 construct: Recombinant secreted protein; Peptides 31-49 (prodomain) and 153-; also called wt-hPCSK9; wt-PCSK9; not shown: V5 and His tags
T1 sequence (Q8NBP7 31-692 limits assumed): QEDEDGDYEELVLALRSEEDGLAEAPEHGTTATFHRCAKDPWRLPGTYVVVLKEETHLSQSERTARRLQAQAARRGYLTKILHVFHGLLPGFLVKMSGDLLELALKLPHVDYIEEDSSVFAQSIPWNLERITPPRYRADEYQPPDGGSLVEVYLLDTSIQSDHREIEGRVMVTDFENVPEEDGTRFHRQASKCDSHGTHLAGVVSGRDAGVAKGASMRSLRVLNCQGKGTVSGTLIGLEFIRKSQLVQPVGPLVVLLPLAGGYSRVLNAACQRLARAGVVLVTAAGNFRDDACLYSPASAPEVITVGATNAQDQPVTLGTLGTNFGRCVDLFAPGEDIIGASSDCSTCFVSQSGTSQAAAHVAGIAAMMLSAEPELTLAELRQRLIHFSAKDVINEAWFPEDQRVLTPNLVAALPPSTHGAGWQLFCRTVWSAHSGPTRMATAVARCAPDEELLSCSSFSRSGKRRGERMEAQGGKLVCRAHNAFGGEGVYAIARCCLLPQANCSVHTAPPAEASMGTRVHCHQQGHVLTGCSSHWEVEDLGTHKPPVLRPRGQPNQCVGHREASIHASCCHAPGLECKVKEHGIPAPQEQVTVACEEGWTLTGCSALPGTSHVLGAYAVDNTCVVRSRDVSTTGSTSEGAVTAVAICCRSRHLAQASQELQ
METHOD_NOTES: SPR (Bio-Rad ProteOn), Fab against human PCSK9-V5-His
pKd: −log10 of the molar value.

# BINDER, pKd
data = [
    ("1D05 Fab variant N50Y (Fab, V domains shown, Tested as a Fab, with only the light chain mutated) VH: QVQLVQSGAEVKKPGSSVKVSCKASGGTFNSHAISWVRQAPGQGLEWMGGINPILGIANYAQKFQGRVTITADESTSTAYMELSSLRSEDTAVYYCARHYEIQIGRYGMNVYYLMYRFASWGQGTLVTVSS VL: DIQMTQSPSSLSASVGDRVTITCRASQGIRSALNWYQQKPGKAPKLLIYYGSTLQSGVPSRFSGSGSGTDFTLTISSLQPEDFAVYYCQQFDGDPTFGQGTKVEIKR", 8.59),
    ("1D05 Fab variant N50D (Fab, V domains shown, Tested as a Fab, with only the light chain mutated) VH: QVQLVQSGAEVKKPGSSVKVSCKASGGTFNSHAISWVRQAPGQGLEWMGGINPILGIANYAQKFQGRVTITADESTSTAYMELSSLRSEDTAVYYCARHYEIQIGRYGMNVYYLMYRFASWGQGTLVTVSS VL: DIQMTQSPSSLSASVGDRVTITCRASQGIRSALNWYQQKPGKAPKLLIYDGSTLQSGVPSRFSGSGSGTDFTLTISSLQPEDFAVYYCQQFDGDPTFGQGTKVEIKR", 8.47),
    ("1D05 Fab variant M48V (Fab, V domains shown, Tested as a Fab, with only the heavy chain mutated) VH: QVQLVQSGAEVKKPGSSVKVSCKASGGTFNSHAISWVRQAPGQGLEWVGGINPILGIANYAQKFQGRVTITADESTSTAYMELSSLRSEDTAVYYCARHYEIQIGRYGMNVYYLMYRFASWGQGTLVTVSS VL: DIQMTQSPSSLSASVGDRVTITCRASQGIRSALNWYQQKPGKAPKLLIYNGSTLQSGVPSRFSGSGSGTDFTLTISSLQPEDFAVYYCQQFDGDPTFGQGTKVEIKR", 8.71),
    ("1D05 Fab variant M48L (Fab, V domains shown, Tested as a Fab, with only the heavy chain mutated) VH: QVQLVQSGAEVKKPGSSVKVSCKASGGTFNSHAISWVRQAPGQGLEWLGGINPILGIANYAQKFQGRVTITADESTSTAYMELSSLRSEDTAVYYCARHYEIQIGRYGMNVYYLMYRFASWGQGTLVTVSS VL: DIQMTQSPSSLSASVGDRVTITCRASQGIRSALNWYQQKPGKAPKLLIYNGSTLQSGVPSRFSGSGSGTDFTLTISSLQPEDFAVYYCQQFDGDPTFGQGTKVEIKR", 8.82),
    ("1D05 Fab variant M48A (Fab, V domains shown, Tested as a Fab, with only the heavy chain mutated) VH: QVQLVQSGAEVKKPGSSVKVSCKASGGTFNSHAISWVRQAPGQGLEWAGGINPILGIANYAQKFQGRVTITADESTSTAYMELSSLRSEDTAVYYCARHYEIQIGRYGMNVYYLMYRFASWGQGTLVTVSS VL: DIQMTQSPSSLSASVGDRVTITCRASQGIRSALNWYQQKPGKAPKLLIYNGSTLQSGVPSRFSGSGSGTDFTLTISSLQPEDFAVYYCQQFDGDPTFGQGTKVEIKR", 8.69),
    ("1D05 Fab variant H32Y (Fab, V domains shown, Site-directed mutant of 1D05, tested as a Fab, with only the heavy chain mutated) VH: QVQLVQSGAEVKKPGSSVKVSCKASGGTFNSYAISWVRQAPGQGLEWMGGINPILGIANYAQKFQGRVTITADESTSTAYMELSSLRSEDTAVYYCARHYEIQIGRYGMNVYYLMYRFASWGQGTLVTVSS VL: DIQMTQSPSSLSASVGDRVTITCRASQGIRSALNWYQQKPGKAPKLLIYNGSTLQSGVPSRFSGSGSGTDFTLTISSLQPEDFAVYYCQQFDGDPTFGQGTKVEIKR", 8.70),
    ("1D05 Fab variant H99Y (Fab, V domains shown, Tested as a Fab, with only the heavy chain mutated) VH: QVQLVQSGAEVKKPGSSVKVSCKASGGTFNSHAISWVRQAPGQGLEWMGGINPILGIANYAQKFQGRVTITADESTSTAYMELSSLRSEDTAVYYCARYYEIQIGRYGMNVYYLMYRFASWGQGTLVTVSS VL: DIQMTQSPSSLSASVGDRVTITCRASQGIRSALNWYQQKPGKAPKLLIYNGSTLQSGVPSRFSGSGSGTDFTLTISSLQPEDFAVYYCQQFDGDPTFGQGTKVEIKR", 8.84),
    ("1D05 Fab variant N50Q (Fab, V domains shown, Tested as a Fab, with only the light chain mutated) VH: QVQLVQSGAEVKKPGSSVKVSCKASGGTFNSHAISWVRQAPGQGLEWMGGINPILGIANYAQKFQGRVTITADESTSTAYMELSSLRSEDTAVYYCARHYEIQIGRYGMNVYYLMYRFASWGQGTLVTVSS VL: DIQMTQSPSSLSASVGDRVTITCRASQGIRSALNWYQQKPGKAPKLLIYQGSTLQSGVPSRFSGSGSGTDFTLTISSLQPEDFAVYYCQQFDGDPTFGQGTKVEIKR", 9.21),
    ("1D05 Fab variant N50T (Fab, V domains shown, Tested as a Fab, with only the light chain mutated) VH: QVQLVQSGAEVKKPGSSVKVSCKASGGTFNSHAISWVRQAPGQGLEWMGGINPILGIANYAQKFQGRVTITADESTSTAYMELSSLRSEDTAVYYCARHYEIQIGRYGMNVYYLMYRFASWGQGTLVTVSS VL: DIQMTQSPSSLSASVGDRVTITCRASQGIRSALNWYQQKPGKAPKLLIYTGSTLQSGVPSRFSGSGSGTDFTLTISSLQPEDFAVYYCQQFDGDPTFGQGTKVEIKR", 8.67),
    ("1D05 Fab variant M48L/M109L/M115L (Fab, V domains shown, Tested as a Fab, with only the heavy chain mutated) VH: QVQLVQSGAEVKKPGSSVKVSCKASGGTFNSHAISWVRQAPGQGLEWLGGINPILGIANYAQKFQGRVTITADESTSTAYMELSSLRSEDTAVYYCARHYEIQIGRYGLNVYYLLYRFASWGQGTLVTVSS VL: DIQMTQSPSSLSASVGDRVTITCRASQGIRSALNWYQQKPGKAPKLLIYNGSTLQSGVPSRFSGSGSGTDFTLTISSLQPEDFAVYYCQQFDGDPTFGQGTKVEIKR", 8.95),
]
